B1: Syntaxin-binding protein 4, residues 493 to 538; numbered along this chain, Q6ZWJ1 (parent)
chain: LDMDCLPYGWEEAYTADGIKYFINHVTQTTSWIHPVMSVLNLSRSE

# Variants of: B1
# test protocol: abundance fitness (aPCA) (normalised: wild type 0, dead -1); higher = more abundant; growth selection in yeast, the domain comes from the species named
# run conditions: Homo sapiens

>  <mut>
W10R

>  <abundance fitness>
-0.863

$$$$
>  <mut>
L1R

>  <abundance fitness>
-0.874

$$$$
>  <mut>
D4Y

>  <abundance fitness>
-0.863

$$$$
>  <mut>
T15F

>  <abundance fitness>
-0.883

$$$$
>  <mut>
D2R

>  <abundance fitness>
-0.603

$$$$
>  <mut>
I33K

>  <abundance fitness>
-0.276

$$$$
>  <mut>
T15R

>  <abundance fitness>
-0.698

$$$$
>  <mut>
P35E

>  <abundance fitness>
-0.634

$$$$
>  <mut>
S43N

>  <abundance fitness>
0.116

$$$$
>  <mut>
T15H

>  <abundance fitness>
-0.881

$$$$
>  <mut>
C5I

>  <abundance fitness>
-0.113

$$$$
>  <mut>
S38C

>  <abundance fitness>
-0.567

$$$$
>  <mut>
D4I

>  <abundance fitness>
-0.639

$$$$
>  <mut>
E11R

>  <abundance fitness>
-0.537

$$$$
>  <mut>
S45L

>  <abundance fitness>
-0.509

$$$$
>  <mut>
L42N

>  <abundance fitness>
0.578

$$$$
>  <mut>
D2N

>  <abundance fitness>
-0.388

$$$$
>  <mut>
I33G

>  <abundance fitness>
-0.199

$$$$
>  <mut>
T27K

>  <abundance fitness>
-0.045

$$$$
>  <mut>
D2S

>  <abundance fitness>
-0.478

$$$$
>  <mut>
E11H

>  <abundance fitness>
-0.657

$$$$
>  <mut>
A16P

>  <abundance fitness>
-0.349

$$$$
>  <mut>
D4W

>  <abundance fitness>
-0.499

$$$$
>  <mut>
E46T

>  <abundance fitness>
-0.143

$$$$
>  <mut>
L6P

>  <abundance fitness>
-0.608

$$$$
>  <mut>
P7M

>  <abundance fitness>
-0.793

$$$$
>  <mut>
L40I

>  <abundance fitness>
-0.816

$$$$
>  <mut>
E11C

>  <abundance fitness>
-0.861

$$$$
>  <mut>
Y14A

>  <abundance fitness>
-0.645

$$$$
>  <mut>
E46R

>  <abundance fitness>
-0.132

$$$$
>  <mut>
H25I

>  <abundance fitness>
-0.754

$$$$
>  <mut>
L6F

>  <abundance fitness>
-0.604

$$$$
>  <mut>
I33Q

>  <abundance fitness>
0.064

$$$$
>  <mut>
T27M

>  <abundance fitness>
0.168

$$$$
>  <mut>
W32A

>  <abundance fitness>
-0.787

$$$$
>  <mut>
H34V

>  <abundance fitness>
-1

$$$$
>  <mut>
P7I

>  <abundance fitness>
-0.984

$$$$
>  <mut>
D17L

>  <abundance fitness>
-0.823

$$$$
>  <mut>
C5W

>  <abundance fitness>
-0.533

$$$$
>  <mut>
E46C

>  <abundance fitness>
0.486

$$$$
>  <mut>
Y14C

>  <abundance fitness>
-0.586

$$$$
>  <mut>
N24D

>  <abundance fitness>
-0.668

$$$$
>  <mut>
E12V

>  <abundance fitness>
0.12

$$$$
>  <mut>
D2Q

>  <abundance fitness>
-0.48

$$$$
>  <mut>
H34C

>  <abundance fitness>
-0.439

$$$$
>  <mut>
R44V

>  <abundance fitness>
-0.147

$$$$
>  <mut>
V39A

>  <abundance fitness>
-0.135

$$$$
>  <mut>
L42K

>  <abundance fitness>
0.16

$$$$
>  <mut>
L1W

>  <abundance fitness>
-0.334

$$$$
>  <mut>
D17W

>  <abundance fitness>
-0.835

$$$$
>  <mut>
N24Q

>  <abundance fitness>
-0.923

$$$$
>  <mut>
G9E

>  <abundance fitness>
-0.184

$$$$
>  <mut>
V36C

>  <abundance fitness>
0.585

$$$$
>  <mut>
L6V

>  <abundance fitness>
-0.511

$$$$
>  <mut>
L40H

>  <abundance fitness>
0.07

$$$$
>  <mut>
S31A

>  <abundance fitness>
-0.799

$$$$
>  <mut>
D4P

>  <abundance fitness>
-0.511

$$$$
>  <mut>
D17H

>  <abundance fitness>
-0.691

$$$$
>  <mut>
M3Q

>  <abundance fitness>
0.065

$$$$
>  <mut>
Y14E

>  <abundance fitness>
-0.513

$$$$
>  <mut>
R44Y

>  <abundance fitness>
-0.109

$$$$
>  <mut>
R44Q

>  <abundance fitness>
-0.063

$$$$
>  <mut>
A16D

>  <abundance fitness>
-0.029

$$$$
>  <mut>
A13T

>  <abundance fitness>
-0.527

$$$$
>  <mut>
C5R

>  <abundance fitness>
-0.18

$$$$
>  <mut>
S31R

>  <abundance fitness>
-0.818

$$$$
>  <mut>
T29R

>  <abundance fitness>
-0.594

$$$$
>  <mut>
L42S

>  <abundance fitness>
0.162

$$$$
>  <mut>
R44P

>  <abundance fitness>
0.041

$$$$
>  <mut>
S45K

>  <abundance fitness>
-0.169

$$$$
>  <mut>
G9W

>  <abundance fitness>
-0.699

$$$$

The values you see were collected from the Human Domainome abundance scans (Beltran et al. 2025).
